Target: T1, Human IL13Rα2 (human, UniProt Q14627 27-343, limits assumed)
T1 construct: also called human recombinant IL13Rα2; Human IL13Ra2
T1 sequence (looked up): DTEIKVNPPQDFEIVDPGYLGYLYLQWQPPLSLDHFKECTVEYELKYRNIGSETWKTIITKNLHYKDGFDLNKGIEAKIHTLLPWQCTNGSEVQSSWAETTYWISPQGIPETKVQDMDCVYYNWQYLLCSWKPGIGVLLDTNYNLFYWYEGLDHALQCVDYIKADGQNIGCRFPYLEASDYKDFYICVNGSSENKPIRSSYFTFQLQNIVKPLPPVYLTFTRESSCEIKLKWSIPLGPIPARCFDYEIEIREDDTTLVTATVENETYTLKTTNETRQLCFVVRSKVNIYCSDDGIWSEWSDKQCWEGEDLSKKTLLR
Assay: SPR Biacore 8K affinity ranking, antibody supernatant Fc-captured, 100 nM IL13Rα2 analyte
Property Label: koff (s⁻¹)
All answers are understood in s⁻¹, so give the number only.

# Binder, Property Label, Meas Value
measured = [
    ("Humanized antibody VH4 + VL4 (antibody, human IgG1, kappa, V domains shown) VH: QVQLVQSGAEVKKPGASVKVSCKASGYTFSNYLMNWVRQATGQGLEWMGRIDPYDGDIDYNQNFKDRVTITRNTSISTAYMELSSLRSEDTAVYYCARGYGTAYGVDYWGQGTLVTVSS VL: EIVMTQSPATLSVSPGERATLSCRASESVDNYGISFMNWYQQKPGQAPRLLIYAASRQGSGIPARFSGSGSGTEFTLTISSLQSEDFAVYYCQQSKEVPWTFGGGTKLEIKR", "koff", 0.000501),
    ("Humanized antibody VH2 + VL4 (antibody, human IgG1, kappa, V domains shown) VH: QVQLVQSGAEVKKPGASVKVSCKASGYTFSNYLMNWVRQAPGQRLEWMGRIDPYDGDIDYNQNFKDRVTITRDTSASTAYMELSSLRSEDTAVYYCARGYGTAYGVDYWGQGTLVTVSS VL: EIVMTQSPATLSVSPGERATLSCRASESVDNYGISFMNWYQQKPGQAPRLLIYAASRQGSGIPARFSGSGSGTEFTLTISSLQSEDFAVYYCQQSKEVPWTFGGGTKLEIKR", "koff", 0.000748),
]

Next item in the queue.
In: Quick check: koff of Humanized antibody VH2 + VL3 (antibody, human IgG1, kappa, V domains shown, also called U3621EI120 VH2+VL3) VH: QVQLVQSGAEVKKPGASVKVSCKASGYTFSNYLMNWVRQAPGQRLEWMGRIDPYDGDIDYNQNFKDRVTITRDTSASTAYMELSSLRSEDTAVYYCARGYGTAYGVDYWGQGTLVTVSS VL: EIVLTQSPATLSLSPGERATLSCRASESVDNYGISFMNWYQQKPGQAPRLLIYAASRQGSGIPARFSGSGSGTDFTLTISSLEPEDFAVYYCQQSKEVPWTFGGGTKLEIKR ?
Out: 0.000761
